Origin of measurements: patent US20120171209A1

Target: IL-6R on the surface of TF-1 cells (UniProt P08887)
Sequence (P08887 20-468 limits assumed): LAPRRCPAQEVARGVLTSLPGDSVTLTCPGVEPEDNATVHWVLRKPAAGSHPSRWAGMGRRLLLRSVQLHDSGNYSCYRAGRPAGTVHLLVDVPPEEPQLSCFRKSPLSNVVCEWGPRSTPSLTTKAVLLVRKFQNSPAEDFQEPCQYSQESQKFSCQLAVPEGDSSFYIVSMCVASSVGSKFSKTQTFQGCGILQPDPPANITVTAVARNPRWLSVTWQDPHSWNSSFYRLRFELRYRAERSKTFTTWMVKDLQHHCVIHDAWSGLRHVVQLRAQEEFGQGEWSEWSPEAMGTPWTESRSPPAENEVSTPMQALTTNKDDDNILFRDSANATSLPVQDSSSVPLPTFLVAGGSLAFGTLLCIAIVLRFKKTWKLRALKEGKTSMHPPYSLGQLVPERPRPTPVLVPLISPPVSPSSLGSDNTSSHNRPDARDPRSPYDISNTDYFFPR
Assay: cell-based or functional assay
measure name: IC50, IL-6-dependent proliferation of TF-1 cells (nM)

(P) IL6RPMP120A5 (VHH, family 28; also called IL6R120A5) VHH: EVQLVESGGGLVQAGGSLSLSCATSGRTISDDTMAWFRQAPGKEREFVAIITFNGARTHYSDSVRDRFTISRDNAKNTVYLQMNSLKSEDTAVYYCAASTKYYSSTYNYIHPAFYDIWGQGTQVTVSS
(Q) IL6RPMP103C4 (VHH, family 19; also called IL6R103C4) VHH: EVQLVESGGGLVEAGGSLRLSCAAAGRTLSSYSMAWFRQAPGKEREFVAIIRGNPSRTYHSDSVKGRFTASRDNAKNTVYLQMNRLEPEDTAVYYCAADPPPFASDYSAPQSYDYWGQGTQVTVSS
Between P and Q , whose recorded IC50, IL-6-dependent proliferation of TF-1 cells is greater? Mark your selection by writing its label.
Q
(Q: 15.6 nM, P: 5.59 nM)
